Listed compounds paired with reported composite z-score
experimental-system: Left-right determination factor 2 (Homo sapiens)
assay: LEFTY2 binders on small-molecule microarrays, primary screen, biochemical, small-molecule microarray, 635 nm fluorescence scan (AID 1110)
experimental-setup: LEFTY2 binding, higher = more signal
attribute-measured: composite z-score

| compound | obs-value |
| --- | --- |
| CCN1C(=O)[C@H]2[C@H]3[C@H](O)[C@H](O)CC(=NOCC(C)C)[C@@H]3CC[C@H]2C1=O | 0.32 |
| CCOC(=O)[C@H](Cc1ccccc1)NC(=O)CCC1CC(OC(=O)NCc2cccc3ccccc23)CC2(CCCC(COC(=O)NCc3cccc(C(F)(F)F)c3)O2)O1 (stereo not given in full) | -0.131 |
| Cc1ccc(S(=O)(=O)OC[C@H]2CN3[C@H](c4ccc(Br)cc4)[C@@H](C)CC[C@H]3C(=O)O2)cc1 | 0.119 |
| C#CCCCON=C1C[C@@H](O)[C@@H](O)[C@@H]2[C@@H]3C(=O)N(C(C)(C)C)C(=O)[C@@H]3CC[C@H]12 | -0.0304 |
| COc1cccc([C@H]2Oc3ccc(OC)cc3C(=NOC[C@@H](O)COCc3ccco3)[C@@H]2O)c1 | -0.159 |
